Data origin: PubChem BioAssay AID504332

target: Histone-lysine N-methyltransferase EHMT2 (Homo sapiens) (UniProt Q96KQ7); assay: qHTS Assay for Inhibitors of Histone Lysine Methyltransferase G9a; details: G9a H3K9 monomethylation, AlphaScreen, 2 h; series mostly up to 59 µM; note: nearly all actives have a fitted effect of over 75% in size
Sequence (Q96KQ7 913-1193 limits assumed): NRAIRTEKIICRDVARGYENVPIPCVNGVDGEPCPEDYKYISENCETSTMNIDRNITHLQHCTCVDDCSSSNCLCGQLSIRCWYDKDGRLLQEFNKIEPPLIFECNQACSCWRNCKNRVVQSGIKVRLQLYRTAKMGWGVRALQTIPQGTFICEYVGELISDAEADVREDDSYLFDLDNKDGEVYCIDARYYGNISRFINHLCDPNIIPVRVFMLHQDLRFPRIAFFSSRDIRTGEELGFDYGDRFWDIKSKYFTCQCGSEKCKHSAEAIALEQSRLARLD
Out of some 350,000 compounds screened, about 31,000 (8.9%) were called active. About 15% were inconclusive and are not listed. Calls come from the whole dose curve; as a rule, active = well fitted inhibition curve with a large enough effect; inconclusive = small, poorly fitted or top-dose-only effect; inactive = no such curve, though single readings can be large or run the other way. The sample as a whole holds a higher share of actives than the screen did.
Give one outcome, nothing more. List: class 1 for active, class 0 for inactive

Cc1cccc(-c2nc(SCc3ccc(Br)cc3)n3[nH]c(=O)cc3n2)c1 | class 0

Query: I would be grateful if you could indicate the recorded call for Cc1cc(C(=O)Nc2cccc(C(F)(F)F)c2)c2c(C)nn(-c3cccc(F)c3)c2n1 .
Reply: class 0

Query: Repeat with COc1ccc(CN2CCc3nc(Nc4ccccc4)ncc3C2)c(OC)c1OC
Reply: class 0

Query: Further, for CC(=O)Nc1ccc(C(=O)Nc2nc(-c3cc(C)n(Cc4ccccc4)c3C)cs2)cc1 ?
Reply: class 0

Query: Query CCN1CCN(CCCNC(=O)c2ccc3c(c2)sc2nc(-c4ccc(OC)cc4)cn23)CC1 next
Reply: class 0

Query: Further, for CCOC(=O)C1CCC(CN(Cc2ccc(OC)cc2)S(=O)(=O)c2ccc(F)c(C(=O)Nc3cc(C)ccc3C)c2)CC1 (stereo not given) ?
Reply: class 0

Query: For CCc1n[nH]c(=S)n1/N=C/c1c[nH]c2ccc(Br)cc12 then?
Reply: class 1
